Molecular target: human CYP11B2 (Homo sapiens, UniProt P19099)
Sequence (P19099 25-503): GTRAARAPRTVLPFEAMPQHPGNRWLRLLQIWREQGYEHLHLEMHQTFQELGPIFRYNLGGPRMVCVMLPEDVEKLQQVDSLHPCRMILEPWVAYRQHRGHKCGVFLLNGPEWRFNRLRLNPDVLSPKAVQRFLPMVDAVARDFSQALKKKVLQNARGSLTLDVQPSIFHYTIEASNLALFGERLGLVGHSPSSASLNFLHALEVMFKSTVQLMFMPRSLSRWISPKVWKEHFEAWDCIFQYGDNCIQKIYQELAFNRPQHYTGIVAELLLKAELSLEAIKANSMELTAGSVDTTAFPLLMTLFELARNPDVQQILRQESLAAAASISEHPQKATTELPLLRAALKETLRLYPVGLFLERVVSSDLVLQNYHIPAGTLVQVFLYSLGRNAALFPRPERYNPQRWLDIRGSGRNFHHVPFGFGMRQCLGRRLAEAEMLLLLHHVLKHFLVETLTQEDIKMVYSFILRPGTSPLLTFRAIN
Assay: Inhibitor potency for human CYP11B2 in V79 cells expressing the enzyme (HPLC steroid analysis)
Conditions: V79 cells stably (over)expressing human CYP11B2; 1 hour with inhibitor, then 11-deoxycorticosterone 500 nM for three hours; read-out: IC50 11B2
Description: Inhibitor potencies for human CYP11B1 and CYP11B2 were determined in an in vitro assay using V79 cells in which human CYP11B1 or CYP11B2 are expressed. The V79 cells stably (over)expressing human CYP11 B2 were developed in the laboratory of Prof. […] Next, cells were incubated for 1 hour in serum free medium with cumulative inhibitor concentrations. […] Steroids were detected by UV absorption at 243 nm (Shimadzu, Tokyo, Japan). […]
READOUT_LABEL: log10(IC50) (log10 of the value in nM)
Use the decimal logarithm of IC50 (nM).

Here is how some compounds turned out for log10(IC50).
>>> readout_number("Cc1cncn1Cc1ccc(C#N)cc1")
1.09
>>> readout_number("Cc1ccccc1-c1cncn1Cc1ccc(C#N)cc1")
-0.15
>>> readout_number("N#Cc1ccc(Cn2cncc2-c2ccccc2)cc1")
0.23
>>> readout_number("COC(=O)CCc1cncn1Cc1ccc(C#N)cc1")
0.54

Kindly consider the entry below.
Measured log10(IC50) of O=[N+]([O-])c1ccc(Cn2cncc2-c2ccccc2)cc1 : 0.36
